Each entry below carries its reported z-score.
Test: basal S. cerevisiae growth modulation, no modifier, primary screen, OD600, strain BY4716, 24 h, basal condition (AID 1173)
Conditions: OD600, 24 h, higher = more signal, called active from +8 up or from −8 down
Calls of active or inactive are those of the source.

Recorded results for 6 compounds are shown here.
* CC(C)[C@@H](CO)NC(=O)[C@H]1[C@@H](c2ccccc2)N(c2ccccc2)O[C@@H]1C | -2.53 (inactive)
* O=C1O[C@H](c2ccccc2)[C@H](c2ccccc2)N2[C@H]1[C@@H](C(=O)Nc1nc3ccccc3s1)[C@]1(C(=O)Nc3ccc(C#CCCO)cc31)[C@H]2c1ccc(OCCO)cc1 | 1.2 (inactive)
* COc1ccc([Si](C)(C)[C@@H]2[C@@H](CC(=O)N3Cc4ccccc4C[C@H]3CO)O[C@]3(C(=O)N(C)c4c(Br)cc(C)cc43)[C@H]2C)cc1 | -1.5 (inactive)
* C[C@]1(C(=O)NC2CC2)c2ccccc2C(=O)N(Cc2cc(C(F)(F)F)cc(C(F)(F)F)c2)[C@H]1c1ccc(CO)cc1 | -0.66 (inactive)
* COCCCNC(=O)[C@@]1(Cc2ccccc2)N=C(c2ccc(OCCCO)cc2)O[C@H]1c1ccccc1 | -1.05 (inactive)
* O=C1O[C@H](c2ccccc2)[C@H](c2ccccc2)N2[C@H]1[C@@H](C(=O)O)[C@]1(C(=O)Nc3ccc(C#CC4=CCCCC4)cc31)[C@H]2c1ccccc1OCCO | -1.17 (inactive)

Continue with the compound presented below.
Quick note, z-score for C[C@@]1([C@@H](NC(=O)c2ccccc2)c2ccc(-c3ccccc3)cc2)C[C@H]1C1CCCCC1 landed at 1.14 (inactive)

* * *

Target: Calmodulin-1 (Homo sapiens) (UniProt P0DP23)
Test: CALM1 binders on microarrays, EGTA buffer, profiling panel, biochemical, small-molecule microarray, Cy5-labelled CALM1 (AID 1111);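 also: labelled calmodulin applied in Tris saline Tween buffer holding calcium plus EGTA and DTT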
Details: Cy5-CALM1 binding fluorescence, higher = more signal
Each entry below carries its reported composite z-score.
Form: value (number only, do not type unit).

Recorded results for 5 compounds are shown here.
* COC(=O)[C@@]1(Cc2ccccc2)[C@H]2c3cc(C(=O)N(C)C)n(CCSCCO)c3C[C@H]2CN1C(=O)c1ccccc1 | 1.26
* COc1ccc(C#Cc2ccc3c(c2)[C@]2(C(=O)N3)[C@H](c3ccccc3OCCO)N3[C@H](c4ccccc4)[C@H](c4ccccc4)OC(=O)[C@H]3[C@@H]2C(=O)O)cc1 | 1.22
* CCOC(=O)C=Cc1cc([N+](=O)[O-])ccc1O | -0.211
* COc1ccc(C(O)C2C=CC3C(=O)NC(=O)C3N2Nc2ccccn2)cc1 (configuration not stated) | -1.3
* COc1ccc([Si](C)(C)[C@H]2[C@H](CC(=O)N3Cc4ccccc4C[C@H]3CO)O[C@@]3(C(=O)N(Cc4ccc(N5CCC5=O)cc4)c4ccccc43)[C@@H]2C)cc1 | 1.02

Quick note, composite z-score for O=C1O[C@H](c2ccccc2)[C@H](c2ccccc2)N2[C@H]1[C@@H](C(=O)O)[C@]1(C(=O)Nc3ccc(C#CCCO)cc31)[C@H]2c1ccc(O)cc1 landed at 0.415

Quick note, composite z-score for C=C(COC)/C(=C/C[C@@H](OC(C)=O)c1ccc(OCCO)cc1)c1cc(C(=O)OC)ccc1OC landed at -0.107
